- Assayed System: T1, ATHB17Δ113-R190K (Arabidopsis thaliana, UniProt Q8S9N6 SEQ:1-162, R190K (full-length numbering))
- T1 sequence: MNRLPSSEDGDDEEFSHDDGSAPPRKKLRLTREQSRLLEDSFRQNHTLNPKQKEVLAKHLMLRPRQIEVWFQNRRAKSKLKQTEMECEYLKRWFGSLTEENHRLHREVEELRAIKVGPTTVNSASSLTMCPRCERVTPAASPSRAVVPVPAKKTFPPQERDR
- Assay Protocol: SPR; reduced affinity to BS2
- Condition Label: chain copies: 2 (homodimer, inferred)
Property Label: pKd
Answers are plain numbers, as −log10 of the molar value.

According to the records, this binder Class II oligo (BS2) (dsDNA) DNA 1: CAGACAATCATTGCGGC DNA 2: GCCGCAATGATTGTCTG displays pKd of 7.17
